system_under_test: Protein kinase C alpha type (Homo sapiens)
assay_remarks: Inhibition of [3H]PDBu binding to recombinant protein kinase C alpha was determined at pH 7.4, 37 degree C for 5 min
property_label: Ki (µM)

Below, each entry is followed by its recorded Ki result.
CC(C)CC(C/C=C1\CC(CO)(COCC(C)(C)C)OC1=O)CC(C)C (stereo unspecified)    14.3
CC(C)CC(C/C=C1/COC(CO)(COC(=O)C(C)(C)C)C1)CC(C)C (stereo unspecified)    0.622
CC(C)CC(C/C=C1\CC(CO)(COC(=O)C(C)(C)C)OC1=S)CC(C)C (stereo unspecified)    0.0237

1. CC(C)CC(C/C=C1/CC(CO)(COCC(C)(C)C)OC1=O)CC(C)C (stereo unspecified)
2. CC(C)CC(C/C=C1\CC(CO)(COC(=S)C(C)(C)C)OC1=O)CC(C)C (stereo unspecified)
Incoming: Lab notebook, comparison: 1 versus 2 , higher Ki goes to which? Label of pick, please.
Outgoing: 1

* * *

system_under_test: Protein kinase C delta type (Homo sapiens, UniProt Q05655)
Sequence (Q05655 whole entry, the tested form may be a part): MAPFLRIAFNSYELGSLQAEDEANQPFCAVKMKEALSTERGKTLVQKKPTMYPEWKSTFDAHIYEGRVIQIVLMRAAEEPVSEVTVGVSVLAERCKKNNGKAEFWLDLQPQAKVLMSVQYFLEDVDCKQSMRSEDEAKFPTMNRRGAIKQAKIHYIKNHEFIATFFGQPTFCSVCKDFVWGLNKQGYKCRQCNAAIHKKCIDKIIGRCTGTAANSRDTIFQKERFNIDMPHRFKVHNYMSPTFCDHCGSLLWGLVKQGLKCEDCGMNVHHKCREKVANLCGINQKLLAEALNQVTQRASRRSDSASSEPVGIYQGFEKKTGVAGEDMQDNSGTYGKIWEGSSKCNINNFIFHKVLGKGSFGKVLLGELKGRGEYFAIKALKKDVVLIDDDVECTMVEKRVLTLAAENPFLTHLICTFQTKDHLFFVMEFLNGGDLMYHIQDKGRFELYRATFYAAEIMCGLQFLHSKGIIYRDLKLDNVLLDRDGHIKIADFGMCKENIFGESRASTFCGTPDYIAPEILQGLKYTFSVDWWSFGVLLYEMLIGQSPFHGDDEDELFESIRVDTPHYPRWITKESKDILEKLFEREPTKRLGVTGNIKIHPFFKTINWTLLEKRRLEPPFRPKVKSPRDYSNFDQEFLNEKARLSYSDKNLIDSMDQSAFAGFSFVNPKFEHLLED
assay_remarks: Inhibition of [3H]PDBu binding to C1b domain of protein kinase C delta with phosphatidylserine
pKi: −log10 of the molar value.
property_label: pKi

In the examples that follow, each entry is paired with its recorded pKi.
CC(C)CC(C/C=C1\CC(CO)(COC(=O)C(C)(C)C)OC1=S)CC(C)C (stereo not given)    8.50
CC(C)CC(C/C=C1/CC(CO)(COCC(C)(C)C)OC1=O)CC(C)C (stereo not given)    5.67
CC(C)CC(C/C=C1/COC(CO)(COC(=O)C(C)(C)C)C1)CC(C)C (stereo not given)    6.66

1. CC(C)CC(C/C=C1\CC(CO)(COCC(C)(C)C)OC1=O)CC(C)C (stereo not given)
2. CC(C)CC(C/C=C1\CC(CO)(COC(=S)C(C)(C)C)OC1=O)CC(C)C (stereo not given)
Incoming: Would you let me know which has the greater pKi value, 1 or 2 ? Pick one and reply with its label.
Outgoing: 2
(2: 7.69, 1: 5.72)
